From: PubChem BioAssay (NCI)

# Test system: T-47D breast
# TEST_DETAILS: NCI tumour cell line growth inhibition, 48 h
EXPERIMENTAL_ENDPOINT: GI50

Consider the reported GI50 for these compounds:
COMPOUND	TEST_SYSTEM	GI50
COc1ccc(-c2cc3c(nn2)-c2ccccc2C3=O)cc1	T-47D breast	> 100 µM
COc1ccc(C2CC(=O)c3c(OC)cc(OC)cc3O2)cc1 (centres undefined)	T-47D breast	> 100 µM
O=C(C[C@@H](C(=O)NCc1cccc(C(F)(F)F)c1)N1C(=O)[C@@H](N2C(=O)OC[C@@H]2c2ccccc2)[C@H]1/C=C/c1ccccc1)NC1CCN(Cc2ccccc2)CC1	T-47D breast	15.7 µM

Would you mind telling me what GI50 value was observed for COc1cc(C(=O)O[C@H](C(N)=O)[C@]2(C)CO2)c2ccccc2c1 ?
10.7 µM

Would you mind telling me what GI50 value was observed for NC(N)=NC(N)=Nc1cc2ccccc2c2ccccc12 ?
11 µM

Would you mind telling me what GI50 value was observed for COc1ccc(/C(=N/Nc2ccc([N+](=O)[O-])cc2)Sc2cc(Cl)c(C)cc2S(N)(=O)=O)cc1 ?
7.16 µM

Would you mind telling me what GI50 value was observed for O=C(CCCSc1nc(-c2ccc(Cl)cc2)cc(-c2ccc(Cl)cc2)n1)NO ?
1.37 µM

Would you mind telling me what GI50 value was observed for COc1cccc(N=Cc2c3ccccc3c(=O)n3c2oc2ccccc23)c1 ?
> 100 µM

Would you mind telling me what GI50 value was observed for CCCCn1c(-c2ccc(C(=O)O/N=C(\N)c3ccc(OC)cc3)cc2)nc(-c2ccccc2)c1-c1ccccc1 ?
1.92 µM

###

# Test system: OVCAR-8 ovarian
# TEST_DETAILS: NCI tumour cell line growth inhibition, 48 h
EXPERIMENTAL_ENDPOINT: TGI

Consider the reported TGI for these compounds:
COMPOUND	TGI
Cc1cccc(N2C(=O)C(Cl)=C(Cl)C2=O)c1	> 100 µM
CCCCNC(=O)NS(=O)(=O)c1ccc(N2N=C(c3ccc(C)cc3C)CC2c2ccc(N(C)C)cc2)cc1 (stereo unspecified)	> 100 µM
CC[C@H](C)[C@H](NC(=O)[C@H]1CCCCN1C)C(=O)N(C)[C@H](CCc1nc(C(=O)N[C@@H](Cc2ccccc2)C[C@H](C)C(=O)OC)cs1)C(C)C	> 25 µM
COc1ccc(C2CC(=O)c3c(O)c(OC)c(OC)c(OC)c3O2)c(O)c1 (stereo unspecified)	40.9 µM

Would you mind telling me what TGI value was observed for CC(=O)c1cccc2c1CC1(C2)Cc2ccc3c(c2C1=O)CCC3 (stereo unspecified) ?
> 100 µM

Would you mind telling me what TGI value was observed for Cc1cc(C)cc(Nc2cc(C)nc3nc(C(F)(F)F)nn23)c1 ?
> 100 µM

###

# Tested on: NCI-H23 lung
# TEST_DETAILS: NCI tumour cell line growth inhibition, 48 h; in the data active = GI50 below about 0.43 µM; inactive = the rest
Log the outcome using a class from t = active, f = inactive

Known results for compounds:
COMPOUND	TEST_SYSTEM	CATEGORY_LABEL
NC(N)=NC(N)=Nc1cc2ccccc2c2ccccc12	NCI-H23 lung	f
Cc1cc(C)cc(Nc2cc(C)nc3nc(C(F)(F)F)nn23)c1	NCI-H23 lung	f
COc1ccc(C2CC(=O)c3c(OC)cc(OC)cc3O2)cc1 (stereo unspecified)	NCI-H23 lung	f
CN1C(NC(=O)c2ccc(Cl)nc2)=NS(=O)(=O)c2cc(Cl)ccc21	NCI-H23 lung	f

For CC(C)=[CH][Sb]([Br])([CH]=C(C)C)([CH]=C(C)C)[CH]=C(C)C , what call appears in the results of this test?
f

For COc1ccc(C2CC(=O)c3c(O)c(OC)c(OC)c(OC)c3O2)c(O)c1 (stereo unspecified) , what call appears in the results of this test?
t

###

# Test system: HOP-62 NSCLC
# TEST_DETAILS: NCI tumour cell line growth inhibition, 48 h
EXPERIMENTAL_ENDPOINT: GI50

MOLECULE	GI50
COc1cccc(NCc2nnc(Nc3ccc(Cl)cc3)c3ccccc23)c1	2.06 µM
CC12CCCC(CC(=O)c3[nH]c4ccccc4c31)C2 (stereo not drawn)	0.813 µM

Now look at this one.
Would you mind telling me what GI50 value was observed for Cn1cc(-c2csc(-c3cccc(F)c3)n2)c2cccnc21 ?
18.9 µM

###

# Tested on: MCF7 breast
Log the outcome using a class from True (active), False (inactive)

Known results for molecules:
NCCCCn1c2c(c3ccccc3c1=O)C(=O)c1ccccc1-2 True
CC(C)(C)OC(=O)N(CCCN(CCn1c2c(c3ccccc3c1=O)C(=O)c1ccccc1-2)C(=O)OC(C)(C)C)CCn1c2c(c3ccccc3c1=O)C(=O)c1ccccc1-2 False
COc1ccc(C(=O)/C=C/c2cccnc2Nc2cc(OC)c(OC)c(OC)c2)cc1 True
COc1ccc(-c2nc(-c3nc4ccc(C)cc4[nH]3)c3ccccn23)cc1 False

For COc1ccc2cc(C(=O)/C=C/c3cccc(OC)c3OC)ccc2c1 , what call appears in the results of this test?
False

For Cc1cc(C2CCCCC2)n(O)c(=O)c1 , what call appears in the results of this test?
False

For COc1cc2c3c(n(CCCBr)c(=O)c2cc1OC)-c1ccc(NC(C)=O)cc1C3=O , what call appears in the results of this test?
False

###

Listing of recorded TGI by entry.
# Test system: NCI-H23 lung
# TEST_DETAILS: NCI tumour cell line growth inhibition, 48 h
Numeric answer only, unit µM assumed.

COMPOUND	TGI / µM
Brc1ccc2c(-c3nc(-c4c[nH]c5ccc(Br)cc45)cs3)c[nH]c2c1	13.3
O=C1C(Br)=CC2(C=C1Br)CCN=c1c(O)c3c(c(O)c12)=NC=N3	26.9
CC[C@@H]1/C=C/C=C/C[C@H](C)[C@@H](O)[C@](C)(O)C(=O)[C@H](C)[C@@H](O)[C@H](C)C(=O)[C@H](C)[C@@H](O)[C@H](C)/C=C/C(=O)O[C@H]2[C@@H](C)[C@@H](CC1)O[C@]1(O[C@H](CC(C)O)[C@H](C)CC1=O)[C@@H]2C (stereo partly drawn)	12.4
CCOC(=O)c1c(C)n(Cc2ccc(OC)cc2)c2c1cc(O)c1[nH]c3c(c12)CCCC3	13.3

Now look at this one.
Would you mind telling me what TGI value was observed for O=C(NC1CCCCCC1)C1C(=O)N(C2CCCCCC2)C(=O)/C1=N\O (stereo not drawn) ?
93.1

###

Listing of recorded TGI by entry.
# Tested on: 786-0 renal
# TEST_DETAILS: NCI tumour cell line growth inhibition, 48 h
Numeric answer only, unit µM assumed.

Consider the reported TGI for these compounds:
LINE_NOTATION	TEST_SYSTEM	TGI [µM]
COc1cc2c3c(n(CCCBr)c(=O)c2cc1OC)-c1ccc(NC(C)=O)cc1C3=O	786-0 renal	25.2
O=C(/C=C/c1ccccc1Cl)c1ccccc1Cl	786-0 renal	28.8
Cc1ccc(N=NC(C(=O)c2ccccc2)C(=O)c2ccccc2)cc1	786-0 renal	40

Lookup: TGI / 786-0 renal / Cc1[nH]c(N=Nc2ccccc2)nc1N=Nc1ccccc1
10.2

###

# Tested on: BT-549 breast
# TEST_DETAILS: NCI tumour cell line growth inhibition, 48 h; in the data active = GI50 below about 0.43 µM; inactive = the rest
Log the outcome using a class from active, inactive

Known results for compounds:
COMPOUND	TEST_SYSTEM	CATEGORY_LABEL
C[C@]12CC[C@@H]3c4ccc(O)cc4C[C@@H](CCCCCCCCCS(=O)CCCC(F)(F)C(F)(F)F)[C@H]3[C@@H]1CC[C@@H]2O (some centres not stated)	BT-549 breast	inactive
COc1ccc(C2CC(=O)c3c(O)c(OC)c(OC)c(OC)c3O2)c(O)c1 (configuration not stated)	BT-549 breast	active
CC(C)CSc1nc(Nc2ccccc2)c(C#N)c(-c2ccc(F)cc2)n1	BT-549 breast	inactive

For Cc1[nH]c(N=Nc2ccccc2)nc1N=Nc1ccccc1 , what call appears in the results of this test?
inactive

For C[C@]12CC[C@@H]3c4ccc(O)cc4CC[C@H]3[C@@H]1CC[C@@H]2NS(=O)(=O)c1ccc(C(F)(F)F)cc1 , what call appears in the results of this test?
inactive

For COc1cccc(N=Cc2c3ccccc3c(=O)n3c2oc2ccccc23)c1 , what call appears in the results of this test?
inactive

For COc1ccc(S(=O)(=O)N(Cc2ccc3c(n2)C=CC(C)(C)O3)C2CCC2)cc1OC , what call appears in the results of this test?
active

###

# Tested on: SNB-75 CNS
# TEST_DETAILS: NCI tumour cell line growth inhibition, 48 h
EXPERIMENTAL_ENDPOINT: TGI

Would you mind telling me what TGI value was observed for Cc1cc(=O)[nH]c(NNC(C#N)c2ccc(O)cc2)n1 (stereo unspecified) ?
> 100 µM

Would you mind telling me what TGI value was observed for COc1ccc(-c2c(C#N)c(NC(=S)NC(=O)c3ccccc3)nc3c2CCCC3)cc1OC ?
> 100 µM
